Molecular target: recombinant human mPGES-1 (Homo sapiens)
Construct: made in house; host or cells: Rosetta E. coli (microsomal/membrane fraction)
Assay: mPGES-1 inhibition test (microsomes, PGH2 substrate, HTRF detection of PGE2)
Format: biochemical
Conditions: inhibition of mPGES-1 at 10 μM
Overview of recorded inhibition at 10 µM for various compounds
Numeric only. Scale: %

Examples with answers:
1. Cn1c(Nc2c(Cl)cccc2Cl)nc2cc(C(=O)NC3CCCCC3)cc(Br)c21 = 96
2. CCc1ccc(C)nc1NC(=O)c1ccc2c(c1)nc(Nc1c(Cl)cccc1Cl)n2C = 89
3. Cn1c(Nc2c(Cl)cccc2Cl)nc2cc(C(=O)NCC3CCCO3)ccc21 (centres unmarked) = 92

Entry under test: CC(C)CCNC(=O)c1cc2nc(Nc3c(Cl)cccc3Cl)n(C)c2cc1F . Its inhibition at 10 µM was 100

====

Target: recombinant human mPGES-1 (Homo sapiens)
Construct: made in house; host or cells: Rosetta E. coli (microsomal/membrane fraction)
Test: mPGES-1 inhibition test (microsomes, PGH2 substrate, HTRF detection of PGE2)
Type: biochemical
Conditions: inhibition of mPGES-1 at 10 μM
Attribute Measured: inhibition at 10 µM (%)
The answer is to be given in %; state only the numeric part.

1) Cn1c(Nc2c(Cl)cccc2Cl)nc2cc(C(=O)NCCc3ccccn3)ccc21 [Example 258] = 83
2) Cn1c(Nc2ccc(Cl)cc2C(F)(F)F)nc2cc(C(=O)Nc3ccc(Br)cc3)ccc21 [Example 433] = 99
3) Cn1c(Nc2cc(C(F)(F)F)ccc2Cl)nc2cc(C(=O)Nc3ccc(Br)cc3)ccc21 [Example 423] = 100

# inhibition at 10 µM (compound: COCCOc1cccc(NC(=O)c2ccc3c(c2)nc(Nc2c(Cl)cccc2Cl)n3C)n1 [Example 302] ) is 86

Record summary for C[C@@H]1CCC[C@@H](NC(=O)c2cc3nc(Nc4c(Cl)cccc4Cl)n(C)c3cc2F)C1 [Example 442] : reported inhibition at 10 µM = 99

Noted for CC(C)Oc1cc2[nH]c(Nc3c(Cl)ccc(Cl)c3F)nc2cc1C(=O)Nc1cccc(Cl)c1 [Example 614] : its inhibition at 10 µM reads 100

Looking up Cc1cc(Br)cnc1NC(=O)c1ccc2[nH]c(Nc3c(Cl)cccc3Cl)nc2c1 [Example 183] , I see its inhibition at 10 µM listed as 100

Form field inhibition at 10 µM, entry Cn1c(Nc2cc(S(C)(=O)=O)ccc2Cl)nc2cc(C(=O)Nc3ccc(Br)cc3)ccc21 [Example 526] : 93

Sample O=C(Nc1c(Cl)cc(Cl)cc1Cl)c1ccc2[nH]c(Nc3c(Cl)cccc3Cl)nc2c1 [Example 313] ; inhibition at 10 µM observed: 99

The compound O=C(NCC1CCOCC1)c1ccc2[nH]c(Nc3c(Cl)cccc3Cl)nc2c1 [Example 217] showed inhibition at 10 µM equal to 54

====

Molecular target: recombinant human mPGES-1 (Homo sapiens, UniProt O14684)
Construct: made in house; host or cells: Rosetta E. coli (microsomal/membrane fraction)
Sequence (O14684 1-152): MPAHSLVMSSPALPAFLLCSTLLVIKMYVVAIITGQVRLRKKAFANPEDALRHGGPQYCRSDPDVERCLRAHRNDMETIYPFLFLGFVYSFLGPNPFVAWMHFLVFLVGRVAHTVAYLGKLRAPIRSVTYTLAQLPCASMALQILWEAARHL
Experiment: mPGES-1 inhibition test (microsomes, PGH2 substrate, HTRF detection of PGE2)
Assay type: biochemical
Conditions: inhibition of mPGES-1 at 10 μM
Attribute Measured: inhibition at 10 µM (%)
Write the value in % as a bare number.

Study these solved cases before continuing.
1) COCCn1c(Nc2c(Cl)cccc2Cl)nc2cc(C(=O)Nc3cc(Cl)ccn3)ccc21 = 90
2) O=C(NCc1ccncc1)c1ccc2[nH]c(Nc3c(Cl)cccc3Cl)nc2c1 = 83
3) Cc1cnc(NC(=O)c2cc3nc(Nc4c(Cl)cccc4Cl)n(C)c3cc2F)cc1C = 99
4) CCCCCCNC(=O)c1cc2nc(Nc3c(F)cccc3Cl)n(C)c2cc1F = 99
5) O=C(Nc1ccc(Br)cc1)c1ccc2[nH]c(Nc3c(Cl)cccc3Cl)nc2c1 = 100
6) CCC1CCC(NC(=O)c2cc3nc(Nc4c(F)cccc4Cl)n(C)c3cc2F)C1 (stereo not drawn) = 100
7) O=C(Nc1cc(Cl)ccn1)c1ccc2[nH]c(Nc3c(Cl)cccc3Cl)nc2c1 = 95
8) Cc1cccc(Cl)c1Nc1nc2cc(C(=O)Nc3ccccc3)ccc2[nH]1 = 99

Given item CC(C)Oc1cc2[nH]c(Nc3c(Cl)ccc(Cl)c3F)nc2cc1C(=O)NC1CCCCC1 , the value recorded as its inhibition at 10 µM is 90

For this molecule ( Cc1ccc(NC(=O)c2ccc3c(c2)nc(Nc2c(Cl)cccc2Cl)n3C)nc1 ), measured inhibition at 10 µM is 100

Notebook: Cc1cc2[nH]c(Nc3c(Cl)cccc3Cl)nc2cc1C(=O)Nc1ccc(Cl)c(F)c1 , inhibition at 10 µM read as 100

So, COc1cc2[nH]c(Nc3c(Cl)cccc3Cl)nc2cc1C(=O)Nc1ccc(C(F)(F)F)cn1 ? Its inhibition at 10 µM was 99

The molecule listed as Cn1c(Nc2cc(C(=O)O)ccc2Cl)nc2cc(C(=O)Nc3ccc(Br)cc3)ccc21 has a reported inhibition at 10 µM of 60

Record O=C(Nc1ccccc1)c1ccc2[nH]c(Nc3ccccc3C(F)(F)F)nc2c1 , field inhibition at 10 µM: 99

inhibition at 10 µM reported for this molecule O=C(Nc1ccccc1Cl)c1ccc2[nH]c(Nc3c(Cl)cccc3Cl)nc2c1 : 100

inhibition at 10 µM for O=C(Nc1ccc(Br)cc1)c1cc2nc(Nc3c(F)ccc(Cl)c3Cl)[nH]c2cc1OCC(F)(F)F is 100

Record Cn1c(Nc2c(Cl)cc(F)cc2Cl)nc2cc(C(=O)NCc3ncccc3C(F)(F)F)ccc21 , field inhibition at 10 µM: 97

Item: Cc1ccc(NC(=O)c2ccc3[nH]c(Nc4c(Cl)cccc4Cl)nc3c2)cc1Cl | inhibition at 10 µM: 100

The recorded inhibition at 10 µM for CN(C)CCn1c(Nc2c(Cl)cccc2Cl)nc2cc(C(=O)Nc3cc(Cl)ccn3)ccc21 is 100

====

Biological target: recombinant human mPGES-1 (Homo sapiens, UniProt O14684)
Construct: made in house; host or cells: Rosetta E. coli (microsomal/membrane fraction)
Experiment: mPGES-1 inhibition test (microsomes, PGH2 substrate, HTRF detection of PGE2)
Type: biochemical
Conditions: inhibition of mPGES-1 at 10 μM
Measured inhibition at 10 µM of individual entries
Give the value in % but do not write % after it.

Below are worked cases with known answers.
1) CC(C)CCCNC(=O)c1cc2nc(Nc3c(Cl)cccc3Cl)n(C)c2cc1F [Example 408] = 100
2) Cn1c(Nc2c(Cl)cccc2Cl)nc2cc(C(=O)NCc3ccc(C(F)(F)F)cn3)ccc21 [Example 246] = 100
3) CN(C)c1ccnc(NC(=O)c2ccc3c(c2)nc(Nc2c(Cl)cccc2Cl)n3C)c1 [compound 559] = 85
4) CC1(C)CCC(NC(=O)c2cc3nc(Nc4c(Cl)ccc(Cl)c4F)[nH]c3cc2F)CC1 [Example 596] = 95

Entry Cn1c(Nc2c(Cl)cccc2Cl)nc2cc(C(=O)NCc3cnccc3C(F)(F)F)c(F)cc21 [Example 126] ; inhibition at 10 µM = 92

Lab note: COc1cc2nc(Nc3c(Cl)cccc3Cl)[nH]c2cc1C(=O)Nc1ccc(Cl)c(F)c1 [Example 197] gave inhibition at 10 µM of 100

Query Cn1c(Nc2c(Cl)cccc2Cl)nc2cc(C(=O)NC3CCCCC3)ccc21 [compound 317] yields inhibition at 10 µM of 98

Record summary for Cn1c(Nc2c(Cl)cccc2Cl)nc2cc(C(=O)Nc3cc(C#N)ccn3)ccc21 [Example 524] : reported inhibition at 10 µM = 98

====

Each item that follows carries a reported inhibition at 10 µM.
Target: recombinant human mPGES-1 (Homo sapiens, UniProt O14684)
Construct: made in house; host or cells: Rosetta E. coli (microsomal/membrane fraction)
Experiment: mPGES-1 inhibition test (microsomes, PGH2 substrate, HTRF detection of PGE2)
Assay type: biochemical
Conditions: inhibition of mPGES-1 at 10 μM
Supply the numeric figure in %, leaving out any unit text.

1) O=C(NC1CCCC(C(F)(F)F)C1)c1ccc2[nH]c(Nc3c(Cl)cccc3Cl)nc2c1 (stereo not shown) = 91
2) COCCn1c(Nc2c(Cl)cccc2Cl)nc2cc(C(=O)NC3CCC(C)(C)CC3)ccc21 = 98
3) Cn1c(CNC(=O)c2cc3nc(Nc4c(Cl)cccc4Cl)n(C)c3cc2F)nc2ccccc21 = 75

Form: compound = Cn1c(Nc2cc(C(N)=O)ccc2Cl)nc2cc(C(=O)Nc3ccc(Br)cc3)ccc21 ; inhibition at 10 µM = 99
